For each record, write down the corresponding AC50.
- test.target: Protein AF-9 (Homo sapiens) (UniProt P42568)
- Sequence (P42568 whole entry, looked up): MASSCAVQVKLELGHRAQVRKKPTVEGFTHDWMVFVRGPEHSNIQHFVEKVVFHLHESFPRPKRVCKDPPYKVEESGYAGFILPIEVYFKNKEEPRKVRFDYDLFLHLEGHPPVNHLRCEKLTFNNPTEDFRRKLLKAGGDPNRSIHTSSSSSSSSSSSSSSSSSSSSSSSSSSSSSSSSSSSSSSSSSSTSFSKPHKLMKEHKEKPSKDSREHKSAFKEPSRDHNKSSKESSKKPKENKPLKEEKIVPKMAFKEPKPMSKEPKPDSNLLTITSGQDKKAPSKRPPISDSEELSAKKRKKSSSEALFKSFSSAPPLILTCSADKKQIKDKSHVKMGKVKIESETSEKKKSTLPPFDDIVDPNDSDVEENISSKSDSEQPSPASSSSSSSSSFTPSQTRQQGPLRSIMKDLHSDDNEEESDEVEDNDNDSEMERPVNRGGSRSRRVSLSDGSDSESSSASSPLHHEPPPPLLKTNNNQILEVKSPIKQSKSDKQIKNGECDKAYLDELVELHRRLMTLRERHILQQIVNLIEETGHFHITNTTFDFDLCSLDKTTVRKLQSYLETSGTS
- assay.text: AF9 binding to AF4 blockers, potency – biochemical, cherry-picked samples, plate reader, dose response (AID 720495)
- recorded.conditions: biochemical protein-protein interaction assay
Records with an inconclusive call do not appear.

AC50 for `Cc1c(P(=S)(c2ccccc2)c2ccccc2)[n+]2ccccc2n1C` is 7.98 µM

compound `COc1cccc(NC2=C(NCCO)C(=O)c3ccccc3C2=O)c1` , AC50 observed: 6.38 µM

Lab note: measured AC50 of CCCC(=O)NC(c1ccc(OC)cc1)c1ccc2cccnc2c1O (configuration not stated) was 0.865 µM

AC50 reported for this compound `CN(C)c1ccc(C=c2c3cc(O)ccc3n3c2cc(-c2ccccc2)[n+]3C)cc1` : 0.975 µM

Item: `CN(C)c1ccc(C=c2c3ccccc3n3c2cc(-c2ccccc2)[n+]3C)cc1` | AC50: 2.43 µM

Documented AC50 of `CCc1nc2ccc(C(=O)NC3CCN(Cc4ccccc4)CC3)cn2c1N(C)Cc1ccc(N(C)C)cc1` : 5.52 µM

Lookup result for `COC(=O)c1ccc2nc(C)cc(Nc3ccc(N(C)C)cc3)c2c1` ; measured AC50: 4.41 µM

Input `CN(C)CCNc1ncnc2c1sc1nc(-c3ccccc3)c3c(c12)CCCC3` . Output AC50: 6.89 µM

Entry `N=C1C=CC(=C(c2ccc(N)cc2)c2ccc(N)cc2)C=C1` — recorded AC50 = 6.08 µM

Summary for this compound, COc1ccc(C2CC(=O)Oc3c(C(CCN4CCCC(C)C4)c4ccc(N(C)C)cc4)c(OC)cc(OC)c32)cc1 (configuration not stated) : AC50 is 0.68 µM

For record `COc1cc(N(C)C)ccc1C=c1c2ccccc2n2c1cc(-c1ccccc1)[n+]2C` the listed AC50 is 1.88 µM

AC50 recorded for this compound, C#CCOCCOCCOCCNc1nc(N2CCN(C(=O)[C@H](CCCN=C(N)N)n3cc(C(N)[C@@H](C)CC)nn3)CC2)nc(N2CCN(C(=O)[C@H](CCCCN)n3cc([C@@H](N)[C@H](C)CC)nn3)CC2)n1 (some centres not stated) , is 3.6 µM

What the record says about `CCN(CC)c1ccc(C(=C2C=CC(=[N+](CC)CC)C=C2)c2ccc(S(=O)(=O)O)cc2S(=O)(=O)[O-])cc1` : AC50 is 4.29 µM

Lookup result for `CN1CCN(/N=C/c2ccc(-c3ccc([N+](=O)[O-])cc3Cl)o2)CC1` ; measured AC50: 9.35 µM

Field AC50 (entry `CCN1/C(=C/C(C)=C/c2sc3ccccc3[n+]2CC)Sc2ccccc21` ) reads 5.6 µM

AC50 in this record for CCN(CC)CCC(c1ccc(N(C)C)cc1)c1c(OC)cc(OC)c2c(-c3ccccc3)cc(=O)oc12 (configuration not stated) : 3.97 µM

Record summary for `CCC(=O)N1CC2(CCN(Cc3ccc(Cl)cc3)CC2)c2c([nH]c3cc(OC)ccc23)[C@H]1CO` : reported AC50 = 10.4 µM

Noted for `C[C@@H]1CN([C@@H](C)CO)C(=O)c2cc(N(C)C)ccc2O[C@@H](C)CCCCO[C@@H]1CN(C)Cc1ccc(C(F)(F)F)cc1` : its AC50 reads 10.5 µM

Entry `CCN1CCN(c2ccc(N)cc2C)CC1` — recorded AC50 = 6.46 µM

CN1CCN(C(c2ccc(Br)cc2)c2cc(Cl)c3cccnc3c2O)CC1 (configuration not stated) yielded AC50 of 1.47 µM

Given item `c1ccc(N=Nc2ccc3cccccc2-3)cc1` , the value recorded as its AC50 is 0.232 µM

GET /value?item= `CCN(Cc1ccccc1)c1ccc(/C=N/N=C(N)N)cc1` &field=AC50 returns 4.43 µM
